system-tested: HA-CaSR WT (Rattus norvegicus, UniProt P48442)
Construct: mGluR5 signal peptide (N); expressed in transfected cells; host or cells: HEK293T
procedure-summary: IP-One assay (IP1 accumulation, Gq signaling), HEK293T transiently transfected
Format: cell-based
test-context: Ca^2+ with 5 μM NPS 2143
measured-parameter: EC50

Request: Fill in the blank: the reported EC50 of "[Ca+2]" is ____.
Response: 8.4 mM

---

system-tested: HA-I841A CaSR mutant (Rattus norvegicus, UniProt P48442, I841A)
Construct: mGluR5 signal peptide (N); expressed in transfected cells; host or cells: HEK293T
Sequence (P48442 20-1079 I841A): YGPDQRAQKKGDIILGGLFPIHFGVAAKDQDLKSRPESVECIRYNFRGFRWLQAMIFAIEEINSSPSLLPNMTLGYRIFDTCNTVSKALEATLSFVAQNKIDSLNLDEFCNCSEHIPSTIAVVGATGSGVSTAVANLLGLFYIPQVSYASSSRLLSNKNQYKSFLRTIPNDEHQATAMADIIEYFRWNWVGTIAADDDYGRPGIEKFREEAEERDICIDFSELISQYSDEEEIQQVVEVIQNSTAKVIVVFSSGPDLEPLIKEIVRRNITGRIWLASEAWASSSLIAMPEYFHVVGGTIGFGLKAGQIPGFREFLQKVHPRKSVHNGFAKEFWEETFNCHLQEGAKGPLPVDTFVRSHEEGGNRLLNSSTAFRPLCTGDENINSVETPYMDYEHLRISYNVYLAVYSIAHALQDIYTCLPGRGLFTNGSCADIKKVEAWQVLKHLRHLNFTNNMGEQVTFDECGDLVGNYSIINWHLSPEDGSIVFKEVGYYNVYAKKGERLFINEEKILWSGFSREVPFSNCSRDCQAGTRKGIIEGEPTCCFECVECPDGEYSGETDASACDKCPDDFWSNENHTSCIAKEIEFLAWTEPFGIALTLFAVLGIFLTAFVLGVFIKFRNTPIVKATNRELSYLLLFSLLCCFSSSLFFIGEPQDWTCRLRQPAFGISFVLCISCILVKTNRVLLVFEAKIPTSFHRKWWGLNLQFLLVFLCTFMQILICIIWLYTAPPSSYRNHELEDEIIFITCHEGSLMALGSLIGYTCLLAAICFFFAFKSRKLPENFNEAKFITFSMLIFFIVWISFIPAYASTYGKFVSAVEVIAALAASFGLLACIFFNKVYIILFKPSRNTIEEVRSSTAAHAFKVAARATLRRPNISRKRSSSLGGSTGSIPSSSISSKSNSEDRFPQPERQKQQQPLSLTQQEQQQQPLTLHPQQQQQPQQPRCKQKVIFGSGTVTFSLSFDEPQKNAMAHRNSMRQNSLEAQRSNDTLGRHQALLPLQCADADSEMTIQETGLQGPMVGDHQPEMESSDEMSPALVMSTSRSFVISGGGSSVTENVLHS
procedure-summary: IP-One assay, HEK293T transiently transfected
Assay type: cell-based
test-context: Ca^2+ alone
measured-parameter: EC50 (mM)
Express the result in mM but write the number alone.

Request: Fill in the blank: the reported EC50 of [Ca+2] [Ca^2+] is ____.
Response: 2.59

Entry source: paper PMC5394417
